Target: T1, human serum albumin (human, UniProt P02768 25-609)
T1 construct: Immobilised on SPR chips; also added in solution in the FcRn occupancy assays; also called HSA; humanSA
Assay: SPR Biacore 3000, HSA on chip, pH 7.4
Define the label as Y when R0 pH 7.4 is strictly less than 6 RU and as N in all remaining cases.

# binder, class name
rows = [
    ("2H11-v3 fused at the C-terminus of Fc-ABDEG (two-armed) (Fc fusion, not shown: Fc-ABDEG domain) GGGGSGGGGSGGGGSGGGGSELQVVESGGGLVQAGGSLRLSCAASGRTFRSNTMGWFRQAPGKEREFVAAITWSGGTTYYADSVKGRFAISGDNAKNTVYLQMNSLKPEDTAVYYCAAEGAKWEPWNGIYHPADFGSWGQGTQVTVSS", "N"),
    ("2H11-v16 fused at the C-terminus of Fc-ABDEG (two-armed) (Fc fusion, not shown: Fc-ABDEG domain) GGGGSGGGGSGGGGSGGGGSELQVVESGGGLVQAGGSLRLSCAASGRTFRSNTMGWFRQAPGKEREFVAAITWSGGTTYYADSVKGRFAISGDNAKNTVYLQMNSLKPEDTAVYYCAAEGPKWEPWNGIYHPADAGSWGQGTQVTVSS", "Y"),
    ("2H11-v12 fused at the C-terminus of Fc-ABDEG (two-armed) (Fc fusion, not shown: Fc-ABDEG domain) GGGGSGGGGSGGGGSGGGGSELQVVESGGGLVQAGGSLRLSCAASGRTFRSNTMGWFRQAPGKEREFVAAITWSGGTTYYADSVKGRFAISGDNAKNTVYLQMNSLKPEDTAVYYCAAEGPKWEPWNGIAHPADFGSWGQGTQVTVSS", "N"),
    ("TA-Fc-ABDEG-2H11 (Fc fusion, also called 2H11 parental (two-armed Fc-ABDEG-20GS-Cterm fusion); not shown: Fc-ABDEG domain) GGGGSGGGGSGGGGSGGGGSELQVVESGGGLVQAGGSLRLSCAASGRTFRSNTMGWFRQAPGKEREFVAAITWSGGTTYYADSVKGRFAISGDNAKNTVYLQMNSLKPEDTAVYYCAAEGPKWEPWNGIYHPADFGSWGQGTQVTVSS", "N"),
    ("2H11-v15 fused at the C-terminus of Fc-ABDEG (two-armed) (Fc fusion, not shown: Fc-ABDEG domain) GGGGSGGGGSGGGGSGGGGSELQVVESGGGLVQAGGSLRLSCAASGRTFRSNTMGWFRQAPGKEREFVAAITWSGGTTYYADSVKGRFAISGDNAKNTVYLQMNSLKPEDTAVYYCAAEGPKWEPWNGIYHPAAFGSWGQGTQVTVSS", "Y"),
]
